- experimental.system: EGFR L858R (Homo sapiens, UniProt P00533, L858R)
- Sequence (P00533 25-1210 L858R): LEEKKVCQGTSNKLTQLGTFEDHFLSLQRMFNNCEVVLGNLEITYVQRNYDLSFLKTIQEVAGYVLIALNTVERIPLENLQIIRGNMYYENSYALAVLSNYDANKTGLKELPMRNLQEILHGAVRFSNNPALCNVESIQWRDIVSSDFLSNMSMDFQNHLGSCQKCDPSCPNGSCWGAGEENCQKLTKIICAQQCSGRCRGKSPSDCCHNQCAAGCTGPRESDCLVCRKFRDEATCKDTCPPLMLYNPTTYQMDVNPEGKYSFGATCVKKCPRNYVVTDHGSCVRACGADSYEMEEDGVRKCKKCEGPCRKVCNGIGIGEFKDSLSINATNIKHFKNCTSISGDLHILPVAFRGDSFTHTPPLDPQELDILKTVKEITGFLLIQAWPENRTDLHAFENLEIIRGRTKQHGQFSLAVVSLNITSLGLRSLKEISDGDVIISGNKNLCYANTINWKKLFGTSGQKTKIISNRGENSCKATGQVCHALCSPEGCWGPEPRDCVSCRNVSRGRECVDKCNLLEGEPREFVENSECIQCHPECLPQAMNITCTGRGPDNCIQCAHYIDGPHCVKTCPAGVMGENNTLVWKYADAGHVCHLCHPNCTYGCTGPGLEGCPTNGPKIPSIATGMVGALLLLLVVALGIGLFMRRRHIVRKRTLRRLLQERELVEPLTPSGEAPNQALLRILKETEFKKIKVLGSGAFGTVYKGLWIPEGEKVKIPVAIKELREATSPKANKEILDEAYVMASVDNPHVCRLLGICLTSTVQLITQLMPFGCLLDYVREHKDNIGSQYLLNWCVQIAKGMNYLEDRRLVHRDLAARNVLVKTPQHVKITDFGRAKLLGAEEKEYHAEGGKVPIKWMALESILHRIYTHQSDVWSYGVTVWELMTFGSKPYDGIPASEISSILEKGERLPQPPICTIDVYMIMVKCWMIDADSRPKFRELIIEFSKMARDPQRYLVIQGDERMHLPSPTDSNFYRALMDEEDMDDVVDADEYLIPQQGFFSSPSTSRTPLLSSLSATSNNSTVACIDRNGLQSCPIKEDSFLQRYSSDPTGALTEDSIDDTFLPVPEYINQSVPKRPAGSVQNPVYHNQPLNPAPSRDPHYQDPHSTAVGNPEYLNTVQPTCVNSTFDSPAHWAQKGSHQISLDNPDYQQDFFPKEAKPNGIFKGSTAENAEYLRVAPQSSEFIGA
- run.description: Anti-protein kinase activity, EGFR L858R
- condition.notes: read-out: Anti-protein kinase activity (IC50) EGFR L858R
pIC50: −log10 of the molar value.
endpoint.name: pIC50

Record CC(C)COC(=O)N1Cc2nc(cs2)-c2csc(n2)CN(C(=O)OCC(C)C)Cc2nc(cs2)-c2csc(n2)C1 has EGFR L858R (Homo sapiens, UniProt P00533, L858R) pIC50 equal to < 6.00

---

pIC50: −log10 of the molar value.
endpoint.name: pIC50

Record CC(C)COC(=O)N1Cc2nc(cs2)-c2csc(n2)CN(C(=O)OCC(C)C)Cc2nc(cs2)-c2csc(n2)C1 [compound 4] has c-Met (Homo sapiens, UniProt P08581) pIC50 equal to < 6.00

---

endpoint.name: IC50

Record CC(C)COC(=O)N1Cc2nc(cs2)-c2csc(n2)CN(C(=O)OCC(C)C)Cc2nc(cs2)-c2csc(n2)C1 [compound 4] has UniProt:P17948 IC50 equal to > 1 µM

---

- experimental.system: Abl T315I (Homo sapiens, UniProt P00519, T315I)
- run.description: Anti-protein kinase activity, Abl T315I
- condition.notes: read-out: Anti-protein kinase activity (IC50) Abl T315I
pIC50: −log10 of the molar value.
endpoint.name: pIC50

Recorded pIC50 (molecule CC(C)COC(=O)N1Cc2nc(cs2)-c2csc(n2)CN(C(=O)OCC(C)C)Cc2nc(cs2)-c2csc(n2)C1 ): < 6.00

---

- experimental.system: EGFR WT (Homo sapiens)
- Sequence (P00533 25-1210): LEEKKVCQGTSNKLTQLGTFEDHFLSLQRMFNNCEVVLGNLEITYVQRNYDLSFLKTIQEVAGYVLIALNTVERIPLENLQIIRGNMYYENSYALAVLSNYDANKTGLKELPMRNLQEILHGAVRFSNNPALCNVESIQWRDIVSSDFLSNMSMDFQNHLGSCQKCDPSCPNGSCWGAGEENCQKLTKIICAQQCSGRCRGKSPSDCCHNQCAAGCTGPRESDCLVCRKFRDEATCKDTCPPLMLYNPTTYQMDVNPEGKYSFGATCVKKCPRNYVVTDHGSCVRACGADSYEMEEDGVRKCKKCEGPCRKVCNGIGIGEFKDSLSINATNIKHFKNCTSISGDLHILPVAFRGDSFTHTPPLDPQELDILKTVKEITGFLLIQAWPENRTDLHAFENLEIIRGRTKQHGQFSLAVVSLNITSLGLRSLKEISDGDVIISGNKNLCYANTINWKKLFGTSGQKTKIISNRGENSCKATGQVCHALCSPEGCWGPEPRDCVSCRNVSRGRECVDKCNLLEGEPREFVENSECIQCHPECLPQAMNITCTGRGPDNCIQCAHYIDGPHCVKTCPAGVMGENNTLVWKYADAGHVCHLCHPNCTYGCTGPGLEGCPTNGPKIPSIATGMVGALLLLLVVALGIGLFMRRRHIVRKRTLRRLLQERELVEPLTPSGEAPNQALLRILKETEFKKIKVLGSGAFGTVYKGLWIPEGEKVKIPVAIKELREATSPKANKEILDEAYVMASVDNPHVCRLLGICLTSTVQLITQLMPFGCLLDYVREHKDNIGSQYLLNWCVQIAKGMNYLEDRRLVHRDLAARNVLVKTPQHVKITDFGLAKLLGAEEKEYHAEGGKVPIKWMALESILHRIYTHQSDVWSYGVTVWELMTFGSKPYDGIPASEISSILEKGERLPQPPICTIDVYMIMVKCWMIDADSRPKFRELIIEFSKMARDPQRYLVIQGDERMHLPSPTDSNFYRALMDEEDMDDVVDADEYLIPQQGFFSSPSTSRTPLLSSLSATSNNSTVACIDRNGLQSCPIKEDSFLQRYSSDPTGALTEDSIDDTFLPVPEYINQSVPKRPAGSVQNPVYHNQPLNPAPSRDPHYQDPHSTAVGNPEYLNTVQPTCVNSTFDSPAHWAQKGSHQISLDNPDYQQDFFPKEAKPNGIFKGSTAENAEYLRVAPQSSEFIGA
endpoint.name: IC50

Recorded IC50 (molecule CC(C)COC(=O)N1Cc2nc(cs2)-c2csc(n2)CN(C(=O)OCC(C)C)Cc2nc(cs2)-c2csc(n2)C1 ): > 1 µM

These entries and their values trace back to paper PMC7887132.
